In this section, each of the compounds is paired with its reported relative viability.
- System: NCI-H838
- PROCEDURE_SUMMARY: relative viability (nuclei count vs DMSO), 5 days (fraction); higher = more cells survive
- ASSAY_CONTEXT: first compound 0.01 µM
Kindly provide the number alone.

Sample records with relative viability:
COMPOUND	ASSAYED_TARGET	relative viability
NC(=O)Nc1cc(-c2cccc(F)c2)sc1C(=O)N[C@H]1CCCNC1 [AZD7762] + Cc1cc(Nc2cc(N3CCN(C)CC3)nc(Sc3ccc(NC(=O)C4CC4)cc3)n2)n[nH]1 [Tozasertib] (partner 0.1 µM)	NCI-H838	0.269
NC(=O)Nc1cc(-c2cccc(F)c2)sc1C(=O)N[C@H]1CCCNC1 [AZD7762] + O=C(c1cc(Cc2n[nH]c(=O)c3ccccc23)ccc1F)N1CCN(C(=O)C2CC2)CC1 [Olaparib] (partner 8 µM)	NCI-H838	0.86

Now, please, on to the next compound.
IN: # relative viability lookup, item NC(=O)Nc1cc(-c2cccc(F)c2)sc1C(=O)N[C@H]1CCCNC1 [AZD7762] + COc1cccc2cc(-c3nc([C@H]4CC[C@H](C(=O)O)CC4)n4ncnc(N)c34)[nH]c12 [OSI-027] (partner 0.5 µM)
OUT: 0.429

====

- Test system: NCI-H1793
- PROCEDURE_SUMMARY: relative viability (nuclei count vs DMSO), 5 days (fraction); higher = more cells survive
- ASSAY_CONTEXT: first compound 1.265 µM
In this section, each of the molecules is paired with its reported relative viability.
Kindly provide the number alone.

Sample records with relative viability:
MOLECULE	relative viability
O=C(O)c1ccc(-c2c[nH]c3ncc(-c4ccccc4)cc23)cc1C1CCCC1 + Cc1nc(NC(=O)N2CCC[C@H]2C(N)=O)sc1-c1ccnc(C(C)(C)C(F)(F)F)c1 [Alpelisib] (partner 2 µM)	0.754
O=C(O)c1ccc(-c2c[nH]c3ncc(-c4ccccc4)cc23)cc1C1CCCC1 + CC1(C)CCC(c2ccc(Cl)cc2)=C(CN2CCN(c3ccc(C(=O)NS(=O)(=O)c4ccc(N[C@H](CCN5CCOCC5)CSc5ccccc5)c(S(=O)(=O)C(F)(F)F)c4)cc3)CC2)C1 [Navitoclax] (partner 0.5 µM)	0.286

IN: For the record O=C(O)c1ccc(-c2c[nH]c3ncc(-c4ccccc4)cc23)cc1C1CCCC1 + CC(=O)c1c(C)c2cnc(Nc3ccc(N4CCNCC4)cn3)nc2n(C2CCCC2)c1=O [Palbociclib] (partner 0.5 µM) , what value of relative viability is listed for NCI-H1793?
OUT: 0.31

IN: For the record O=C(O)c1ccc(-c2c[nH]c3ncc(-c4ccccc4)cc23)cc1C1CCCC1 + COc1cc2c(Oc3ccc(NC(=O)C4(C(=O)Nc5ccc(F)cc5)CC4)cc3F)ccnc2cc1OCCCN1CCOCC1 [Foretinib] (partner 0.25 µM) , what value of relative viability is listed for NCI-H1793?
OUT: 0.602

====

- Tested on: NCI-H1666
- PROCEDURE_SUMMARY: relative viability (nuclei count vs DMSO), 5 days (fraction); higher = more cells survive
- ASSAY_CONTEXT: first compound 0.5 µM
Condition met if relative viability is below 0.8. Condition not met if not; exact matches included in Condition not met.

The following compounds have reported results that may help.
COMPOUND	CATEGORY
CC1(C)CCC(c2ccc(Cl)cc2)=C(CN2CCN(c3ccc(C(=O)NS(=O)(=O)c4ccc(N[C@H](CCN5CCOCC5)CSc5ccccc5)c(S(=O)(=O)C(F)(F)F)c4)cc3)CC2)C1 [Navitoclax] + Cc1cc(Nc2cc(N3CCN(C)CC3)nc(Sc3ccc(NC(=O)C4CC4)cc3)n2)n[nH]1 [Tozasertib] (partner 0.1 µM)	Condition met
CC1(C)CCC(c2ccc(Cl)cc2)=C(CN2CCN(c3ccc(C(=O)NS(=O)(=O)c4ccc(N[C@H](CCN5CCOCC5)CSc5ccccc5)c(S(=O)(=O)C(F)(F)F)c4)cc3)CC2)C1 [Navitoclax] + C[C@]1(O)C[C@@H](c2nc(-c3ccc4ccc(-c5ccccc5)nc4c3)c3c(N)nccn32)C1 [Linsitinib] (partner 1 µM)	Condition not met
CC1(C)CCC(c2ccc(Cl)cc2)=C(CN2CCN(c3ccc(C(=O)NS(=O)(=O)c4ccc(N[C@H](CCN5CCOCC5)CSc5ccccc5)c(S(=O)(=O)C(F)(F)F)c4)cc3)CC2)C1 [Navitoclax] + NC(=O)Nc1cc(-c2cccc(F)c2)sc1C(=O)N[C@H]1CCCNC1 [AZD7762] (partner 0.2 µM)	Condition not met

IN: Lab log: compare recorded relative viability with 0.8; is it strictly lower for CC1(C)CCC(c2ccc(Cl)cc2)=C(CN2CCN(c3ccc(C(=O)NS(=O)(=O)c4ccc(N[C@H](CCN5CCOCC5)CSc5ccccc5)c(S(=O)(=O)C(F)(F)F)c4)cc3)CC2)C1 [Navitoclax] + CC(=O)Nc1cccc(-n2c(=O)n(C3CC3)c(=O)c3c(Nc4ccc(I)cc4F)n(C)c(=O)c(C)c32)c1 [Trametinib] (partner 0.02 µM) ?
OUT: Condition not met
